Field: melting point. Provide a value for each of the compounds that follow.

Below are worked cases with known answers.
O=C(Nc1ccc(Cl)cc1)c1ccccc1F	94.5 to 96.2 °C
Cc1cc(N)cc(C)c1Oc1ccc(O)c(Cc2ccc(F)cc2)c1	179 to 182 °C
COCC#Cc1ccc(CNC(=O)[C@@H](COC)NC(C)=O)cc1	141 to 142 °C
CSC(=S)NN=Cc1ccccn1	171 to 173 °C
O=C(CCCc1ccccc1)N[C@H](Cc1ccc(F)cc1)[C@@H](O)c1ccc(F)cc1 (racemic)	147 to 148 °C

Need melting point for each of these compounds.
1. Cc1nc2c(NC(=O)C(C)(C)C)cccn2c1Cl
2. CCOC(=O)CNC(=O)C=C(c1ccc(Cl)cc1)c1ccc(Cl)cc1
3. CN1CC(=O)Nc2ccsc2C1=O
4. CC(C)c1nsc(N=C(Cl)N(C)C)c1C#N
5. COc1cccc(C(C)NC(=O)CCc2cnoc2-c2ccc(Cl)cc2)c1 (stereo not given)

## Output
["117 to 118 °C", "123 to 124 °C", "270 to 272 °C", "72 to 75 °C", "89 to 90 °C"]

Would you mind listing melting point for each of the following compounds?
1. CC(=O)c1cc(NC(=O)NCCCC(C)CNC(=O)Nc2cc(C(C)=O)cc(C(C)=O)c2)cc(C(C)=O)c1 (stereo not given)
2. COc1ccc2c(c1)C(C(Cl)(Cl)Cl)OC(C(Cl)(Cl)Cl)O2 (stereo not given)
3. COc1ccc(C2=NN(CC(=O)c3ccccc3OC)C(=O)[C@H]3CCCC[C@@H]23)cc1OC (relative stereo)

## Output
1. 128 °C
2. 105 to 107 °C
3. 93 to 96 °C

###

MEASURED ATTRIBUTE: melting point (°C)
Numbers only, in °C.

Example entries begin here.
O=c1[nH]c2cc(Cl)c(Cl)cc2n1CCCBr	198
Cc1c(CCCCCCCCC(=O)O)cccc1C(=O)c1ccc(Cl)cc1	64

Lab note: next molecule to report on.
## Input For CCNc1ccc2ccccc2c1-c1c(P(c2ccccc2)c2ccccc2)ccc2ccccc12 , what is its reported melting point?
## Output 83.1

###

What melting point was measured for each of the following?

O=C1NC(=O)c2c1c(-c1ccccc1)cc1[nH]c3ccc(OP(=O)(OCc4ccccc4)OCc4ccccc4)cc3c21	193 to 194 °C

Provide each entry's melting point from the list below.
1. OC1CSC(Oc2ccc(-c3cnccc3F)nc2-c2cnccc2F)C(O)C1O (stereo unspecified)
2. CCCCN1CCCC1CNC(=O)c1cc(Cl)cc2c1SCCN2C (stereo unspecified)
3. COc1c(N2CCC(O)C2)c(F)cc2c(=O)c(C(=O)O)cn(C3CC3)c12 (stereo unspecified)
4. COC(=O)c1nc2n(c1C)-c1ccc(Cl)cc1C(c1ccccc1F)=NC2
5. COc1ccc(S(=O)C(C(=O)NO)c2ccccc2)cc1 (stereo unspecified)
6. N#Cc1ncccc1-c1ccc2c(c1)C1(CCCCC1)C(=O)N2
7. O=[N+]([O-])c1cccc(Nc2nc(Cl)nc(NC3CCCCCC3)n2)c1
8. COc1ccc(C#N)cc1C=O

## Output
209 °C
108 to 109 °C
253 to 254 °C
137 to 138 °C
135 °C
232 to 234 °C
82 °C
115 to 118 °C

###

MEASURED ATTRIBUTE: melting point

Study these solved cases before continuing.
O=c1oc2c(-c3ccccc3)cccc2c(O)c1-c1ccccc1	211 °C
CCCc1nnc(/C=C/c2cn(-c3ccccc3)nc2OCc2ccc(OCc3nc(-c4ccco4)oc3C)c(OC)c2)o1	165 to 166 °C
CC(C)c1ccc2oc3cc(C#N)c(O)nc3c(=O)c2c1	> 300 °C
CCOC(=O)C1=Cc2cc(SC)ccc2OC1C(F)(F)F (stereo not given)	87.8 to 89.6 °C

API: the following record is the query input.
## Input Quick check: melting point of CCc1cc2cc(OC)ccc2[nH]1 ?
## Output 49 to 50 °C

###

Give measured melting point for each item. Keep answers brief.

These recorded examples may help you get a feel for the data.
O=C1N(N2CCCCC2)c2ccccc2C1(Cc1ccccc1)Cc1ccccc1	94 to 96 °C
O=C(Nc1ccc(Br)cn1)[NH+]([O-])C(=O)c1c(Cl)cccc1Cl (configuration not stated)	230 to 235 °C
NC(=O)c1cccc(C2(O)C3CCC2CN(Cc2ccccc2)C3)c1 (configuration not stated)	210 to 214 °C
CC12CCC(O)CC1CCC1C2C(=NO)CC2(C)C1CCC21OCCO1 (configuration not stated)	158 to 159 °C
Nc1nccnc1C=O	110 to 114 °C

Field: melting point. Fill in for each record below.
1. O=C1/C(=C(/c2ccccc2)N2CCCC2)Sc2ccccc21
2. N#CCOc1ccc2cc(Br)ccc2c1Br
3. Cn1c([N+](=O)[O-])cnc1C1=NOC2CCCCC12 (configuration not stated)
4. NNc1nccc(-c2ccc(OC3CCOCC3)c(Cl)c2)c1Cl
5. CSc1cc(C=O)nn1C
6. COc1cccc2c(Nc3ccccc3C)nc(N(C)C)nc12
7. Cc1ccc2c(c1)c(O)c(C(=O)NC1CCCCC1)c(=O)n2Cc1ccc(F)cc1
8. CCNC(=O)n1nc(Oc2c(F)cc(C(F)(F)F)cc2F)cc1C

## Output
["157 °C", "130 to 132 °C", "119 to 121 °C", "173 °C", "47 to 48 °C", "141 to 143 °C", "156 °C", "102 to 104 °C"]

###

What melting point was measured for each of the following?

CN(C)c1ccc2c(c1)CN(c1cccc(-c3cc(Nc4ccncn4)c(=O)n(C)c3)c1CO)C2=O	206 to 208 °C
O=[N+]([O-])c1ccc(Cl)cc1NN1CCOCC1	155 °C
CC1(C)C(=O)N(c2ccccc2)C(=S)N1c1ccc(OCc2ccccc2)cc1	208 to 210 °C

Hello, I would appreciate it if you could give melting point for each entry below.
1. COc1ccc(CN2C(=O)C(CCO)Oc3ccccc32)cc1 (centres undefined)
2. COCc1c(C(=O)OC)sc2nnsc12
3. O=C1SC(Cc2ccc(OCCON=Cc3ccc(-c4ccccc4)nc3)cc2)C(=O)N1C(c1ccccc1)(c1ccccc1)c1ccccc1 (centres undefined)
4. CCc1cc2c(s1)-n1c(nnc1C1CCCCC1)CN=C2c1ccccc1Cl
5. CCCCOC(=O)c1cc(NC(=O)C2=C(C)OCCS2)ccc1Cl
6. CCCCN(C)C(=O)OCCCc1ccc(OCCOC)cc1Oc1ncc(C(F)(F)F)cc1Cl
7. Cc1cc(-c2ccc(S(C)(=O)=O)cc2)n(-c2ccc(-c3ccoc3)cc2)c1

## Output
80 to 82 °C
123 to 124 °C
146 to 148 °C
116 to 119 °C
71 to 73 °C
54 to 55.2 °C
154 to 156 °C

Give me melting point for each of these compounds, listed below.
1. NCCCCC(OP(=O)(O)CCCCc1ccccc1)C(=O)N1CCCC1C(=O)O (centres undefined)
2. C=CCN1C(=O)CN(c2ccc(Cc3ccccc3)cc2)C1=S
3. CC(=O)OC1CCc2c(C3=C(c4cn(C)c5ccccc45)C(=O)OC3=O)c3ccccc3n2C1 (centres undefined)
4. O=C1NC(=O)C(=Cc2ccc(N3CCC(NC[C@H](O)COc4cccc5[nH]c(=O)[nH]c45)CC3)c(F)c2)S1
5. COc1ccc(CC(C(=O)O)S(C)(=O)=O)cc1C(=O)NCc1ccc(C(F)(F)F)cc1 (centres undefined)

## Output
["160 to 175 °C", "132 °C", "272 to 275 °C", "162 to 164 °C", "158 to 159 °C"]

Give me melting point for each of these compounds, listed below.
1. CC(=O)c1cccn1Cc1ccco1
2. O=CN1CCN(C2=C(Cl)C(=O)c3nsnc3C2=O)CC1
3. Cc1ccc(C(=C2CN(C(c3ccccc3)c3ccccc3)C2)S(C)(=O)=O)cc1
4. COc1nc(NC(=O)NS(=O)(=O)c2cc(Cl)ccc2C(=O)OC(C)C)nc(C(F)(F)F)n1
5. COc1ccc(-c2nc3cccc(C(=O)NC4CC5CCCC(C4)N5C)c3o2)cc1 (centres undefined)

## Output
42 to 43 °C
191 to 194 °C
210 °C
160 to 163 °C
160 to 162 °C

###

MEASURED ATTRIBUTE: melting point

Examples with answers:
O=P(O)(O)C1(P(=O)(O)O)CCCCN1	70 °C
COC(=O)C(=O)c1ccc(OCCCCOc2ccc3ccccc3c2)cc1	93 to 95 °C
O=C1Nc2cc(C(F)(F)F)ccc2N2CCN(CCc3ccccn3)CC12 (stereo unspecified)	194 to 196 °C
O=CCc1c(O)c(Br)cc(F)c1F	46.5 to 48 °C
NC(=O)N(O)Cc1ccc(Oc2ccc(-n3ccnc3)cc2)o1	155 °C
O=C1NC2CCC1C(O)C2 (stereo unspecified)	115 to 120 °C
CCCc1ccnc(C(=O)c2[nH]c3cc(Cl)ccc3c2CC(=O)O)c1	189 to 191 °C
CC(C)(C)OC(=O)c1ncn2c1CN(C(=O)N1CCOCC1)c1cc(F)ccc1-2	196 °C

Okay, here is my list. What is melting point for each of these?
1. O=C(c1ccc2nc(C3CC3)n(Cc3ccccc3Cl)c2c1)C1CNCCO1 (stereo unspecified)
2. CC1(C)C(=O)N(c2ccc(C#N)c(C(F)(F)F)c2)C(=O)N1CCCC(=O)O
3. CCOC(=O)c1c2c(n(CC(N)=O)c1C)C(=O)C(=O)c1ccc(Br)cc1-2

## Output
193 to 195 °C
179 to 180 °C
> 250 °C
